Each entry below carries its measured IC50, system: 5-HT2 receptor (Rattus norvegicus).
Sequence (P14842 whole entry): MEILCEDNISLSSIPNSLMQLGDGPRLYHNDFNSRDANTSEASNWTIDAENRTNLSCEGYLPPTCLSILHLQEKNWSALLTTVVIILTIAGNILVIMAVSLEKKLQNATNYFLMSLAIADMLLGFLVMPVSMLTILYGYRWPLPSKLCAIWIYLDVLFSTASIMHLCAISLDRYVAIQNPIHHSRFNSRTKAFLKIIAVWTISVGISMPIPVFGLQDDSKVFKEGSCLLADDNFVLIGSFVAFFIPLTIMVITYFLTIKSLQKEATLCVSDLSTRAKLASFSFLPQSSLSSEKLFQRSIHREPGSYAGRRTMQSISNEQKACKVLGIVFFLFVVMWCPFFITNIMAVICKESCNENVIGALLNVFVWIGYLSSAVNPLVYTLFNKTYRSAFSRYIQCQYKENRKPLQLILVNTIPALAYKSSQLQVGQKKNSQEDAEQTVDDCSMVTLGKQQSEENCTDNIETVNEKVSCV
MEASURED PROPERTY: IC50 (nM)

>>> reported("COc1cccc(CCc2ccccc2OCC(CN(C)C)OC(=O)CCC(=O)O)c1 (centres unmarked) [Sarpogrelate, reference compound]")
27
>>> reported("O=C(N[C@H]1CCN(CCc2ccc(F)cc2)C1)C12CC3CC(CC(C3)C1)C2")
0.18

----------
Measured melting point by item
Structures can show the parent of a compound that is named as a salt.
MEASURED PROPERTY: melting point

>>> reported("O=C(N[C@H]1CCN(CCCc2ccc(F)cc2)C1)C12CC3CC(CC(C3)C1)C2 [Example 15]")
"114 to 115 °C"
>>> reported("O=C(N[C@H]1CCN(C[C@@H](O)c2ccccc2)C1)C12CC3CC(CC(C3)C1)C2 (as salt: hydrochloride) (hydrate or solvate) [Example 71]")
"149 to 151 °C"
>>> reported("CN(C(=O)C12CC3CC(CC(C3)C1)C2)[C@H]1CCN(CCc2cccc(F)c2)C1 (as salt: hydrochloride) (hydrate or solvate) [Example 65]")
"252 to 253 °C"

----------
Measured melting point by item
Structures can show the parent of a compound that is named as a salt.
MEASURED PROPERTY: melting point

>>> reported("O=C(N[C@H]1CCN(CCc2ccc(F)cc2)C1)N(C1CCCCC1)C1CCCCC1")
"97 to 98 °C"
>>> reported("O=C(N[C@@H]1CCN(CCc2ccccc2)C1)C12CC3CC(CC(C3)C1)C2")
"118 to 120 °C"
>>> reported("O=C(N[C@H]1CCN(CCc2ccccc2C(F)(F)F)C1)C12CC3CC(CC(C3)C1)C2 (as salt: hydrochloride) (hydrate or solvate)")
"127 to 128 °C"
>>> reported("O=C(N[C@H]1CCN(CCc2ccc(F)cc2)C1)C1=c2ccccc2=CC=C2CC=CC=C21")
"127 to 128 °C"
>>> reported("COc1ccc(CCN2CC[C@H](NC(=O)C34CC5CC(CC(C5)C3)C4)C2)cc1")
"81 to 83 °C"

----------
System: platelet rich plasma (PRP)
Assay: Platelet aggregation suppressive action (collagen + 5-HT, platelet rich plasma)
Type: cell-based, Japanese white rabbit
Settings: Oryctolagus cuniculus, rabbit PRP, collagen + 3 μM 5-HT
pIC50: −log10 of the molar value.
MEASURED PROPERTY: pIC50

>>> reported("COc1cccc(CCc2ccccc2OCC(CN(C)C)OC(=O)CCC(=O)O)c1 (stereo not drawn) [Sarpogrelate, reference compound]")
6.59
>>> reported("O=C1CCc2cc(OCCCCc3nnnn3C3CCCCC3)ccc2N1 [Cilostazol, reference compound]")
5.86
>>> reported("O=C(N[C@H]1CCN(CCc2ccc(F)cc2)C1)C12CC3CC(CC(C3)C1)C2")
8.72

----------
Structures can show the parent of a compound that is named as a salt.
MEASURED PROPERTY: melting point

>>> reported("O=C(N[C@H]1CCN(CCCCc2ccccc2)C1)C12CC3CC(CC(C3)C1)C2")
"82 to 84 °C"
>>> reported("O=C(N[C@H]1CCN(CCc2ccc(C(F)(F)F)cc2)C1)C12CC3CC(CC(C3)C1)C2 (as salt: hydrochloride) (hydrate or solvate)")
"214 to 215 °C"
>>> reported("O=C(N[C@H]1CCN(CCc2cccc(F)c2)C1)C12CC3CC(CC(C3)C1)C2")
"87 to 89 °C"
>>> reported("O=C(N[C@H]1CCN(CCc2ccccc2F)C1)C12CC3CC(CC(C3)C1)C2")
"106 to 108 °C"
>>> reported("O=C(N[C@H]1CCN(CCc2cccc(C(F)(F)F)c2)C1)C12CC3CC(CC(C3)C1)C2 (as salt: hydrochloride) (hydrate or solvate)")
"160 to 163 °C"
>>> reported("O=C(N[C@H]1CCN(CCc2ccc(F)cc2)C1)C(c1cccs1)c1cccs1")
"96 to 98 °C"
>>> reported("N#Cc1ccc(CCN2CC[C@H](NC(=O)C34CC5CC(CC(C5)C3)C4)C2)cc1")
"104 to 105 °C"
>>> reported("O=C(N[C@H]1CCN(Cc2ccccc2)C1)C12CC3CC(CC(C3)C1)C2")
"130 to 132 °C"
>>> reported("O=C(NC1CCN(CCc2ccc(F)cc2)C1)N1CC2CC3CC1C[C@@H](C3)C2 (stereo partly shown) (as salt: hydrochloride) (hydrate or solvate)")
"110 to 113 °C (dec.)"
>>> reported("O=C(N[C@H]1CCN(CCc2ccc(Cl)cc2)C1)C12CC3CC(CC(C3)C1)C2")
"94 to 95 °C"
>>> reported("CN(C(=O)C12CC3CC(CC(C3)C1)C2)[C@H]1CCN(CCc2ccc(F)cc2)C1 (as salt: hydrochloride) (hydrate or solvate)")
"253 to 254 °C"
>>> reported("O=C(N[C@H]1CCN(CCc2ccccc2)C1)C(c1ccccc1)c1ccccc1 (as salt: oxalate)")
"191 to 192 °C"
>>> reported("O=C(N[C@H]1CCN(CCCc2ccc(Cl)cc2)C1)C12CC3CC(CC(C3)C1)C2")
"117 to 119 °C"
>>> reported("O=C(N[C@H]1CCN(CC2CCCc3ccccc32)C1)C12CC3CC(CC(C3)C1)C2 (stereo partly shown) (as salt: hydrochloride) (hydrate or solvate)")
"140 to 142 °C"
>>> reported("O=C(N[C@H]1CCN(CCc2ccc(F)cc2)C1)n1c2ccccc2c2ccccc21")
"107 to 108 °C"
>>> reported("CN(C(=O)C12CC3CC(CC(C3)C1)C2)[C@H]1CCN(CCc2ccccc2F)C1 (as salt: hydrochloride)")
"241 to 242 °C"
>>> reported("O=C(N[C@H]1CCN(CC2Cc3ccccc3C2)C1)C12CC3CC(CC(C3)C1)C2 (as salt: hydrochloride) (hydrate or solvate)")
"241 to 243 °C"
>>> reported("O=C(N[C@H]1CCN(CCc2ccc(F)cc2)C1)C(c1ccccc1)c1ccccc1 (as salt: oxalate) (hydrate or solvate)")
"156 to 158 °C"
>>> reported("O=C(Cc1ccccc1C1CCCC1)N[C@H]1CCN(CCc2ccccc2)C1")
"117 to 119 °C"
>>> reported("O=C(N[C@H]1CCN(C[C@H](O)c2ccccc2)C1)C12CC3CC(CC(C3)C1)C2 (as salt: hydrochloride) (hydrate or solvate)")
"139 to 141 °C"
>>> reported("O=C(N[C@H]1CCN(C2Cc3ccccc3C2)C1)C12CC3CC(CC(C3)C1)C2 (as salt: hydrochloride) (hydrate or solvate)")
"278 to 279 °C"
>>> reported("O=C(N[C@H]1CCN(CCc2ccccc2)C1)C12CC3CC(CC(C3)C1)C2")
"119 to 121 °C"
>>> reported("O=C(N[C@H]1CCN(CCCc2ccccc2)C1)C12CC3CC(CC(C3)C1)C2")
"118 to 120 °C"
>>> reported("O=C(N[C@H]1CCN(CCc2ccccc2)C1)NC12CC3CC(CC(C3)C1)C2 (as salt: hydrochloride) (hydrate or solvate)")
"201 to 202 °C"
>>> reported("CN(C(=O)C12CC3CC(CC(C3)C1)C2)[C@@H]1CCN(CCc2ccc(F)cc2)C1 (as salt: hydrochloride) (hydrate or solvate)")
"264 to 265 °C"
>>> reported("O=C(N[C@H]1CCN(CCc2ccc(F)cc2)C1)C(c1ccccc1F)c1ccccc1F")
"107 to 108 °C"
>>> reported("O=C(N[C@H]1CCN(CCc2ccc(F)cc2)C1)C(C1CCCCC1)C1CCCCC1")
"122 to 124 °C"
>>> reported("Cc1ccccc1C(C(=O)N[C@H]1CCN(CCc2ccc(F)cc2)C1)c1ccccc1C")
"108 to 110 °C"

Data provenance is patent US6468998B1.
